target: SARS-CoV-2 spike protein (SARS-CoV-2, UniProt P0DTC2 14-1208)
Kindly state kon for each of the entries shown.
Give bare numbers, in M⁻¹ s⁻¹.

- antibody 448 (antibody, V domains shown) VH: QVQLVQSGAEVKKPGASVKVSCKASGYTFTSYGISWVRQAPGQGLEWMGWISAYNGNTNYAQKLQGRVTMTTDTSTSTAYMELRSLRSDDTAVYYCAIELLEGFYYYYGMDVWGQGTTVTVSS VL: SYELTQPPSVSVSPGQTARITCSGDALPKQYAYWYQQKPGQAPVLVIYKDSERPSGIPERFSGSSSGTTVTLTISGVQAEDEADYYCQSADSSGTYPYVVFGGGTKLTVL: 18500
- antibody 433 (antibody, V domains shown) VH: QVQLVESGGGVVQPGRSLRLSCAASGFTFSSYAMHWVRQAPGKGLEWVAVISYDGSNKYYADSVKGRFTISRDNSKNTLYLQMNSLRAEDTAVYYCAKDYEVVIAIGGPGAFDYWGQGTLVTVSS VL: SYVLTQPPSVSVAPGKTARITCGGNNIGSKSVHWYQQKPGQAPVLVIYYDSDRPSGIPERFSGSNSGNTATLTISRVEAGDEADYYCQVWDSSSDHVVFGGGTKLTVL: 125000
- antibody 441 (antibody, V domains shown) VH: EVQLVESGGGVVRPGGSLRLSCAASGFTFGDYGMSWVRQAPGKGLEWVSGINWNGGSTGYADSVKGRFTISRDNAKNSLYLQMNSLRAEDTALYYCASDLVRGVIGFDYWGQGTLVTVSS VL: SYELTQPPSVSVSPGQTARITCSGDALPKQYAYWYQQKPGQAPVLVIYKDSERPSGIPERFSGSSSGTTVTLTISGVQAEDEADYYCQSADSSGITGVFGGGTKLTVL: 91900

Param item = antibody 481 (antibody, V domains shown) VH: EVQLVESGGGLIQPGGSLRLSCAASGFTVSSNYMSWVRQAPGKGLEWVSVIYSGGSTFYADSVKGRFTISRDNSKNTLYLQMNSLRAEDTAVYYCAREVAGTYDYWGQGTLVTVSS VL: DIQMTQSPSSVSASVGDRVTITCRASQGISSWLAWYQQKPGKAPKLLIYAASSLQSGVPSRFSGSGSGTDFTLTISSLQPEDFATYYCQQANSFPGGTFGPGTKVDIKR ; retrieve measured kon. 109000
